- Measurement Description: pH of the salt solutions
- Assay type: physicochemical
- Experimental Parameters: aqueous solution of the salt, Table 5
Measured pH, listed per entry for reference.
Provide a numeric answer; units are not to be included.

Some entries whose results are on file:
{"Molecule": "CCCN(CCC)CC(=O)O[C@H]1C[C@]2(C)[C@@H](C(=O)COC(C)=O)CC[C@H]2[C@@H]2CC[C@H]3C[C@H](O)CC[C@]3(C)[C@H]21 [Example 209]", "pH": 3.2}
{"Molecule": "CCN(CC)CC(=O)O[C@H]1C[C@]2(C)[C@@H](C(C)=O)CC[C@H]2[C@@H]2CC[C@H]3C[C@H](O)CC[C@]3(C)[C@H]21 [Example 152]", "pH": 3.6}
{"Molecule": "CC(=O)[C@H]1CC[C@H]2[C@@H]3CC[C@H]4C[C@H](O)CC[C@]4(C)[C@H]3[C@@H](OC(=O)CN3CCCC3)C[C@]12C [Example 155]", "pH": 3.45}
{"Molecule": "CCN(CC)CC(=O)OC1CC2(C)C(C(C)=O)CCC2C2CCC3CC(O)C(C)CC3(C)C12 (stereo not drawn) [Example 176]", "pH": 3.7}
{"Molecule": "CCN(CC(=O)O[C@H]1C[C@]2(C)[C@@H](C(C)=O)CC[C@H]2[C@@H]2CC[C@H]3C[C@H](O)CC[C@]3(C)[C@H]21)C(C)CC(C)C (stereo partly drawn) [Example 197]", "pH": 2.99}

Record CC(=O)[C@H]1CC[C@H]2[C@@H]3CC[C@H]4C[C@](C)(O)CC[C@]4(C)[C@H]3[C@@H](OC(=O)CN3CCCCC3)C[C@]12C [Example 133] . Reported pH: 3.7
